biological target: HLA-A*02:01 (Homo sapiens, UniProt P04439, D140Y/D185E/D98H/E176V/E277Q/G131W/G231S/I119V/I121R/I166T/I218V/L300P/L318F/N151K/N90K/P208A/P217A/Q86G/Q94H/R138H/R169H/T345S); assay: MHC binding assay (UV-ligand exchange, ELISA, peptide exchange yield); conditions: binding of HLA-class I restricted peptides to HLA-A*02:01
ASSAY METRIC: Peptide exchange (MHC class I binding score, peptide exchange yield)

[
  {
    "SUBSTANCE": "68 (SLMELPRGLFL; listed as Homo sapiens) [compound 68]",
    "VALUE REPORTED": "″++++″ (≥75% = ++++)"
  },
  {
    "SUBSTANCE": "510 (KLYSVVSQL; listed as Homo sapiens) [compound 510]",
    "VALUE REPORTED": "″++″ (≥20% = ++)"
  },
  {
    "SUBSTANCE": "426 (RLADKSVLV; listed as Homo sapiens) [compound 426]",
    "VALUE REPORTED": "″+++″ (≥50% = +++)"
  },
  {
    "SUBSTANCE": "471 (YLYNNMIAKI; listed as Homo sapiens) [compound 471]",
    "VALUE REPORTED": "″+++″ (≥50% = +++)"
  },
  {
    "SUBSTANCE": "254 (TLLAFIMEL; listed as Homo sapiens) [compound 254]",
    "VALUE REPORTED": "″+++″ (≥50% = +++)"
  },
  {
    "SUBSTANCE": "136 (YLADPSNLFVV; listed as Homo sapiens) [compound 136]",
    "VALUE REPORTED": "″+++″ (≥50% = +++)"
  }
]

For 315 (YLQDVVEQA; listed as Homo sapiens) [compound 315] the substance record lists Peptide exchange (MHC class I binding score, peptide exchange yield) as ″+++″ (≥50% = +++)

For 344 (YLQDQHLLLTV; listed as Homo sapiens) [compound 344] the substance record lists Peptide exchange (MHC class I binding score, peptide exchange yield) as ″+++″ (≥50% = +++)

====

biological target: HLA-A*02:01 (Homo sapiens, UniProt P04439, D140Y/D185E/D98H/E176V/E277Q/G131W/G231S/I119V/I121R/I166T/I218V/L300P/L318F/N151K/N90K/P208A/P217A/Q86G/Q94H/R138H/R169H/T345S); assay: MHC binding assay (UV-ligand exchange, ELISA, peptide exchange yield); conditions: binding of HLA-class I restricted peptides to HLA-A*02:01
ASSAY METRIC: Peptide exchange (MHC class I binding score, peptide exchange yield)

Worked set:
[
  {
    "SUBSTANCE": "187 (RQISIRGIVGV; listed as Homo sapiens) [compound 187]",
    "VALUE REPORTED": "″+++″ (≥50% = +++)"
  },
  {
    "SUBSTANCE": "48 (ALAELYEDEV; listed as Homo sapiens) [compound 48]",
    "VALUE REPORTED": "″+++″ (≥50% = +++)"
  },
  {
    "SUBSTANCE": "513 (SLWPSPEQL; listed as Homo sapiens) [compound 513]",
    "VALUE REPORTED": "″++″ (≥20% = ++)"
  },
  {
    "SUBSTANCE": "91 (IMQDFPAEIFL; listed as Homo sapiens) [compound 91]",
    "VALUE REPORTED": "″++++″ (≥75% = ++++)"
  },
  {
    "SUBSTANCE": "205 (SLYPGTETMGL; listed as Homo sapiens) [compound 205]",
    "VALUE REPORTED": "″+++″ (≥50% = +++)"
  },
  {
    "SUBSTANCE": "436 (HLAEVSAEV; listed as Homo sapiens) [compound 436]",
    "VALUE REPORTED": "″+++″ (≥50% = +++)"
  },
  {
    "SUBSTANCE": "283 (ALYIGDGYVIHLA; listed as Homo sapiens) [compound 283]",
    "VALUE REPORTED": "″+++″ (≥50% = +++)"
  },
  {
    "SUBSTANCE": "597 (KLLEGQVIQL; listed as Homo sapiens) [compound 597]",
    "VALUE REPORTED": "″+++″ (≥50% = +++)"
  },
  {
    "SUBSTANCE": "63 (YLLPSGGSVTL; listed as Homo sapiens) [compound 63]",
    "VALUE REPORTED": "″++″ (≥20% = ++)"
  },
  {
    "SUBSTANCE": "556 (FLTDLEDLTL; listed as Homo sapiens) [compound 556]",
    "VALUE REPORTED": "″+++″ (≥50% = +++)"
  }
]

For 215 (QLINHLHAV; listed as Homo sapiens) [compound 215] the substance record lists Peptide exchange (MHC class I binding score, peptide exchange yield) as ″+++″ (≥50% = +++)

For 51 (LLPDLEFYV; listed as Homo sapiens) [compound 51] the substance record lists Peptide exchange (MHC class I binding score, peptide exchange yield) as ″++++″ (≥75% = ++++)

For 209 (KLIESKHEV; listed as Homo sapiens) [compound 209] the substance record lists Peptide exchange (MHC class I binding score, peptide exchange yield) as ″++″ (≥20% = ++)

For 572 (ALADLIEKELSV; listed as Homo sapiens) [compound 572] the substance record lists Peptide exchange (MHC class I binding score, peptide exchange yield) as ″+++″ (≥50% = +++)

====

Molecular target: HLA-A*02:01 (Homo sapiens, UniProt P04439, D140Y/D185E/D98H/E176V/E277Q/G131W/G231S/I119V/I121R/I166T/I218V/L300P/L318F/N151K/N90K/P208A/P217A/Q86G/Q94H/R138H/R169H/T345S)
Assay: MHC binding assay (UV-ligand exchange, ELISA, peptide exchange yield)
Settings: binding of HLA-class I restricted peptides to HLA-A*02:01
Description: Candidate peptides for T cell based therapies according to the present invention were further tested for their MHC binding capacity (affinity). The individual peptide-MHC complexes were produced by UV-ligand exchange, where a UV-sensitive peptide is cleaved upon UV-irradiation, and exchanged with the peptide of interest as analyzed. Only peptide candidates that can effectively bind and stabilize the peptide-receptive MHC molecules prevent dissociation of the MHC complexes. […]
ASSAY METRIC: Peptide exchange (MHC class I binding score, peptide exchange yield)

[
  {
    "SUBSTANCE": "40 (TLLVKVFSV; listed as Homo sapiens) [compound 40]",
    "VALUE REPORTED": "″+++″ (≥50% = +++)"
  },
  {
    "SUBSTANCE": "138 (YQYPRAILSV; listed as Homo sapiens) [compound 138]",
    "VALUE REPORTED": "″+++″ (≥50% = +++)"
  },
  {
    "SUBSTANCE": "485 (NVPDSFNEV; listed as Homo sapiens) [compound 485]",
    "VALUE REPORTED": "″+++″ (≥50% = +++)"
  },
  {
    "SUBSTANCE": "610 (LLAPTPYIIGV; listed as Homo sapiens) [compound 610]",
    "VALUE REPORTED": "″+++″ (≥50% = +++)"
  },
  {
    "SUBSTANCE": "542 (RVWDISTVSSV; listed as Homo sapiens) [compound 542]",
    "VALUE REPORTED": "″+++″ (≥50% = +++)"
  }
]

For 248 (FLFPNQYVDV; listed as Homo sapiens) [compound 248] the substance record lists Peptide exchange (MHC class I binding score, peptide exchange yield) as ″+++″ (≥50% = +++)

For 123 (NLWDLTDASVV; listed as Homo sapiens) [compound 123] the substance record lists Peptide exchange (MHC class I binding score, peptide exchange yield) as ″+++″ (≥50% = +++)

For 22 (IMEENPGIFAV; listed as Homo sapiens) [compound 22] the substance record lists Peptide exchange (MHC class I binding score, peptide exchange yield) as ″+++″ (≥50% = +++)

For 467 (FLAKDFNFL; listed as Homo sapiens) [compound 467] the substance record lists Peptide exchange (MHC class I binding score, peptide exchange yield) as ″+++″ (≥50% = +++)

For 498 (KLWTGGLDNTV; listed as Homo sapiens) [compound 498] the substance record lists Peptide exchange (MHC class I binding score, peptide exchange yield) as ″+++″ (≥50% = +++)

For 451 (LLLLDTVTMQV; listed as Homo sapiens) [compound 451] the substance record lists Peptide exchange (MHC class I binding score, peptide exchange yield) as ″++″ (≥20% = ++)

For 242 (AIAYILQGV; listed as Homo sapiens) [compound 242] the substance record lists Peptide exchange (MHC class I binding score, peptide exchange yield) as ″++″ (≥20% = ++)

For 23 (VLLDDIFAQL; listed as Homo sapiens) [compound 23] the substance record lists Peptide exchange (MHC class I binding score, peptide exchange yield) as ″+++″ (≥50% = +++)
